system: MDA-MB-468 breast; experiment: NCI tumour cell line growth inhibition, 48 h; in the data active = GI50 below about 0.43 µM; inactive = the rest
Classes used: active, inactive

INPUT_SMILES	TESTED_TARGET	CLASS
COc1cc(-c2nn(-c3cccc(NC(=O)c4cccc(C(F)(F)F)c4)c3)cc2-c2ccncc2)ccc1Cl	MDA-MB-468 breast	inactive
COc1ccc(Cl)cc1Nc1nc(C(F)(F)F)ccc1C(=O)N/N=C/c1ccc(Cl)cc1	MDA-MB-468 breast	inactive
CCC(=C(c1ccc(OCCN(CC)CC)cc1)c1ccc(OCCN(CC)CC)cc1)c1ccc(Cl)cc1	MDA-MB-468 breast	inactive
COc1ccc(S(=O)(=O)NCCCNc2nccc(-c3c(-c4ccc(F)cc4)nc4sccn34)n2)cc1	MDA-MB-468 breast	inactive
O=C(COC(=O)[C@H](C[Se][Se]C[C@H](NC(=O)c1ccc(Br)cc1F)C(=O)OCC(=O)c1ccc(F)cc1)NC(=O)c1ccc(Br)cc1F)c1ccc(F)cc1	MDA-MB-468 breast	inactive
Oc1ccc(/C=N/Nc2nnc(N/N=C/c3ccc(O)cc3O)c3ccccc23)c(O)c1	MDA-MB-468 breast	active
CN(C)C(=O)c1cc2cnc(Nc3ccc(N4CCNCC4)cn3)nc2n1C1CCCC1	MDA-MB-468 breast	inactive
COc1cc(/C=N/n2cnc3oc(-c4ccccc4)cc3c2=N)cc(CN2CCCCC2)c1O	MDA-MB-468 breast	inactive
Cc1cccc(Cc2cnc(NC(=O)CCCOc3ccc(Cl)cc3)s2)c1	MDA-MB-468 breast	inactive

---

system: MDA-MB-468 breast; test: NCI tumour cell line growth inhibition, 48 h
MEASURED_PROPERTY: TGI (µM)

COMPOUND	TESTED_TARGET	MEASURED_PROPERTY	COMPARATOR	TEST_RESULT
O=C1C(=O)c2c(ccc3ccccc23)-c2ccccc21	MDA-MB-468 breast	TGI	=	3.26
CC(=O)Nc1ccc(C(=O)COc2cccc(/C=C3\CCc4ccccc4C3=O)c2)cc1	MDA-MB-468 breast	TGI	>	100
Cn1c(=O)c(Oc2ccc(F)cc2F)cc2cnc(NC3CCC(O)CC3)nc21 (centres undefined)	MDA-MB-468 breast	TGI	>	25
CN1CCN(Cc2ccc(NC(=O)c3cncc(C#Cc4cnc5ccc(NCCCO)nn45)c3)cc2C(F)(F)F)CC1	MDA-MB-468 breast	TGI	=	0.228
COc1cc(-c2nn(-c3cccc(NC(=O)c4cccc(C(F)(F)F)c4)c3)cc2-c2ccncc2)ccc1Cl	MDA-MB-468 breast	TGI	=	4.56
CN1CCN(Cc2ccc(NC(=O)c3cncc(C#Cc4cnc5cccnn45)c3)cc2C(F)(F)F)CC1	MDA-MB-468 breast	TGI	=	8.22
CCC(=C(c1ccc(OCCN(CC)CC)cc1)c1ccc(OCCN(CC)CC)cc1)c1ccc(Cl)cc1	MDA-MB-468 breast	TGI	=	1.05
COc1cc(/C=N/n2cnc3oc(-c4ccccc4)cc3c2=N)cc(CN2CCCCC2)c1O	MDA-MB-468 breast	TGI	=	3.65
C/C=C\C(=O)O[C@@H]1CC2O[C@@H]3C=C(C)C(=O)C[C@]3(C)[C@]1(C)[C@]21CO1	MDA-MB-468 breast	TGI	=	2.13

---

tested on: MDA-MB-468 breast; test: NCI tumour cell line growth inhibition, 48 h; in the data active = GI50 below about 0.43 µM; inactive = the rest
Classes used: label 1 = active, label 0 = inactive

INPUT_SMILES	CLASS
O=C1COc2c(CCNCCN(C(=O)CCNCCc3ccc(Cl)c(Cl)c3)C3CCCCC3)ccc(O)c2N1	label 0
O=C(NCc1cccnc1)c1ccc([N+](=O)[O-])o1	label 0
O=C(Nc1cccc(C(F)(F)F)c1)Nc1ccc(OCc2nnc(-c3ccccc3)o2)c(F)c1	label 0
CCn1c(SC)nnc1-c1cc2c([nH]c3ccccc32)c(-c2cccc(O)c2)n1	label 0
Fc1ccc(-c2cc3nc(C(Cl)Cl)nc(-c4ccc(F)cc4)n3n2)cc1	label 1
C/C(=N\NC(=O)c1ccncc1)c1ccccc1O	label 0
CS(=O)(=O)Nc1ccc(Nc2c3ccccc3nc3cc(Cl)ccc23)cc1	label 0
COc1cc(/C=C/C(=O)c2c(-c3ccc(Cl)cc3)nc3sc(C)nn23)cc(OC)c1OC	label 0

---

tested on: MDA-MB-468 breast; assay: NCI tumour cell line growth inhibition, 48 h
Assign class by TGI: not lower than 9 µM means met; lower than 9 µM means not met.

INPUT_SMILES	CLASS
CC[C@@H](CO)Nc1ccc2ncc(C#Cc3cncc(C(=O)Nc4ccc(CN5CCN(C)CC5)c(C(F)(F)F)c4)c3)n2n1	not met
CN(C)C(=O)c1cc2cnc(Nc3ccc(N4CCNCC4)cn3)nc2n1C1CCCC1	met
Cc1ccc(C(=O)NN2C(=O)/C(=C/C=C/c3ccc([N+](=O)[O-])o3)SC2=S)cc1	not met
c1csc(-c2[nH]nc3c2CCc2ccccc2-3)c1	not met
Cc1cc(N(CCCl)CCCl)ccc1/C=N\NC(=O)c1cccnc1	not met
O=C1COc2c(CCNCCN(C(=O)CCNCCc3ccc(Cl)c(Cl)c3)C3CCCCC3)ccc(O)c2N1	met
